biological target: human cardiac ion channel proteins hKir3.1/Kir3.4 (Homo sapiens, UniProt P48544+P48549); construct: expressed in transfected cells; test: Atomic Absorption Screening (AAS) Rb efflux assay of hKir3.1/Kir3.4 block, carbachol/high K+ stimulated, 10-pt or 7-pt CR; format: cell-based; details: 10-pt CR (0.003 to 67 μmol/L), AAS Rb efflux, CHO-K1 cells expressing hKir3.1/Kir3.4; mean of >4 replicates; read-out: IKACh IC50 10-pt CR, AAS
Sequence (P48549 whole entry): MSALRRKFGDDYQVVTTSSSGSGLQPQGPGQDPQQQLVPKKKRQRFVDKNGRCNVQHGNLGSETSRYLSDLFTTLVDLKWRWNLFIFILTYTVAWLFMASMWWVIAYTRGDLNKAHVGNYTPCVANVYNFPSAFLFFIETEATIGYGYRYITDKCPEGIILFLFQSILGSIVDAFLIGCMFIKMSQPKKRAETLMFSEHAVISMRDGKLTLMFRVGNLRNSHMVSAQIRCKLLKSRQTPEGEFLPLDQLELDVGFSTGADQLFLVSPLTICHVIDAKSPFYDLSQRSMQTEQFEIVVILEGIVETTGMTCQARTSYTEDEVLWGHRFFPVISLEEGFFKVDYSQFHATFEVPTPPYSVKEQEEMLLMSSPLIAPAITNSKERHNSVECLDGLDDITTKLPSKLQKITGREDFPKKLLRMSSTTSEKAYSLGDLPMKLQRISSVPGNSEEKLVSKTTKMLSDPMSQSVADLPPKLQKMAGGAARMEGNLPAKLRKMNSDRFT
Sequence (P48544 whole entry): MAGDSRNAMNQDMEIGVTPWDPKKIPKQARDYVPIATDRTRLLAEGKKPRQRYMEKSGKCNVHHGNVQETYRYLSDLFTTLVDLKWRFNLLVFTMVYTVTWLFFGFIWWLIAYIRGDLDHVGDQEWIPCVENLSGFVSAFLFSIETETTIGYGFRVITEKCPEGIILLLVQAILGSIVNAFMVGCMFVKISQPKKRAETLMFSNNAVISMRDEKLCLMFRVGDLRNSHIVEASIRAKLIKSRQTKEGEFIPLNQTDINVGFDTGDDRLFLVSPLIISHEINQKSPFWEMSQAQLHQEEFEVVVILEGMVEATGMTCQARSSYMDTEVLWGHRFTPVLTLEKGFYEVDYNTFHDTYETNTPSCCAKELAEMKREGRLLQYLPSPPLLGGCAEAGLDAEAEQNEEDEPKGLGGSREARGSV
pIC50: −log10 of the molar value.

[
  {
    "COMPOUND": "Cc1cc(C(=O)N(C)[C@H](CN2CCC(O)CC2)C(C)C)ccc1F [Example 24]",
    "pIC50": 5.40
  },
  {
    "COMPOUND": "CCCC[C@@H](CN1CC(O)C1)N(C)C(=O)c1ccc(F)cc1 [Example 33.7]",
    "pIC50": 6.26
  },
  {
    "COMPOUND": "CCCC[C@@H](CN1CC(O)C1)N(C)C(=O)c1ccc(C#N)cc1 [Example 33.4]",
    "pIC50": 5.96
  },
  {
    "COMPOUND": "CN(C(=O)c1ccc(F)c(F)c1)[C@H](CN1CC(O)C1)C1CC1 [Example 9.9]",
    "pIC50": 4.96
  },
  {
    "COMPOUND": "CN(C(=O)c1ccc(F)cc1Cl)[C@H](CN1CC(O)C1)C1CCC1 [Example 39.1]",
    "pIC50": 5.96
  },
  {
    "COMPOUND": "COc1ccc(C(=O)N(C)[C@H](CN2CC(O)C2)C2CCC2)cc1C [Example 39.9]",
    "pIC50": 6.47
  },
  {
    "COMPOUND": "CN(C(=O)c1ccc(Br)cc1)[C@H](CN1CCCC1)C1CC1 [Example 3.15]",
    "pIC50": 5.42
  },
  {
    "COMPOUND": "CCC[C@@H](CN1CC(O)C1)N(C)C(=O)c1ccc(Cl)c(C)c1 [Example 8.4]",
    "pIC50": 6.70
  },
  {
    "COMPOUND": "CN(C(=O)c1ccc(C#N)cc1)[C@H](CN1CC(O)(C2CC2)C1)C1CC1 [Example 9.4]",
    "pIC50": 4.85
  },
  {
    "COMPOUND": "CC[C@H](C)[C@@H](CN1CC(O)C1)N(C)C(=O)c1cc(Cl)ccc1OC [Example 29.9]",
    "pIC50": 4.80
  },
  {
    "COMPOUND": "Cc1cc(C(=O)N(C)[C@H](CN2CCC2)C(C)C)ccc1F [Example 1.10]",
    "pIC50": 5.16
  },
  {
    "COMPOUND": "CN(C(=O)c1ccc(Cl)c(Cl)c1)[C@H](CN1CCCC1)C(C)(C)C [Example 2.1]",
    "pIC50": 4.96
  },
  {
    "COMPOUND": "CCC[C@@H](CN1CC(O)C1)N(C(=O)c1ccc(Cl)cc1)C(C)C [Example 34.1]",
    "pIC50": 5.48
  },
  {
    "COMPOUND": "CN(C(=O)c1ccc(Cl)cc1)C(CN1CC(O)C1)C1CCCC1 (single isomer, unassigned) [32.3, isomer 2]",
    "pIC50": 6.52
  },
  {
    "COMPOUND": "CC(C)[C@@H](CN1CC[C@@H](O)C1)N(C)C(=O)c1ccc(Br)cc1 [Example 17.5]",
    "pIC50": 5.57
  },
  {
    "COMPOUND": "CC(C)[C@@H](CN1CC(C)(O)C1)N(C)C(=O)c1ccc(Br)cc1 [Example 9.6]",
    "pIC50": 5.55
  },
  {
    "COMPOUND": "CO[C@H](C)[C@@H](CN1CCCC1)N(C)C(=O)c1ccc(F)c(C)c1 [Example 3.1]",
    "pIC50": 5.13
  },
  {
    "COMPOUND": "CC(C)[C@@H](CN1CC[C@H](O)C1)N(C)C(=O)c1ccc(F)cc1Cl [Example 10.1]",
    "pIC50": 5.21
  },
  {
    "COMPOUND": "COC[C@@H]1CCCN1C[C@H](C(C)C)N(C)C(=O)c1ccc(OC)cc1 [Example 3.18]",
    "pIC50": 5.72
  },
  {
    "COMPOUND": "CN(C(=O)c1ccc(Br)cc1)[C@H](CN1CCC1)C1CC1 [Example 4.3]",
    "pIC50": 5.17
  },
  {
    "COMPOUND": "CN(C(=O)c1ccc(Cl)cc1)C(C)(C)CN1CCCC1 [Example 16.6]",
    "pIC50": 4.70
  },
  {
    "COMPOUND": "Cc1cc(C(=O)N(C)[C@@H](CN2CCC(O)CC2)C(C)C)ccc1F [Example 25]",
    "pIC50": 4.77
  },
  {
    "COMPOUND": "COCC1CN(C[C@H](C(C)C)N(C)C(=O)c2ccc(F)c(F)c2)C1 [Example 28]",
    "pIC50": 4.72
  },
  {
    "COMPOUND": "Cc1cc(C(=O)N(C)[C@H](CN2CC(O)C2)C2CC2)ccc1F [Example 7.1]",
    "pIC50": 5.89
  },
  {
    "COMPOUND": "CC(C)c1ccc(C(=O)N(C)[C@H](CN2CCCC2)C(C)C)cc1 [Example 16.49]",
    "pIC50": 5.01
  },
  {
    "COMPOUND": "CC[C@H](C)[C@@H](CN1CCCC1)N(C)C(=O)c1ccc(F)c(C)c1 [Example 2.5]",
    "pIC50": 5.57
  },
  {
    "COMPOUND": "CCC[C@H](CN1CC(O)C1)N(C)C(=O)c1ccc(Cl)cc1 [Example 37]",
    "pIC50": 5.01
  },
  {
    "COMPOUND": "COc1cc(C(=O)N(C)[C@@H](CC(C)C)CN2CC(O)C2)ccc1F [Example 38.5]",
    "pIC50": 5.38
  },
  {
    "COMPOUND": "Cc1ccc(C(=O)N(C)[C@@H](C)CN2CC(O)C2)cc1C [Example 40.2]",
    "pIC50": 5.07
  },
  {
    "COMPOUND": "COC1CCN(C[C@H](C(C)C)N(C)C(=O)c2cccc(C)c2)CC1 [Example 3.10]",
    "pIC50": 4.85
  },
  {
    "COMPOUND": "CC(C)[C@@H](CN1CC(F)C1)N(C)C(=O)c1ccc(Cl)cc1 [Example 1.6]",
    "pIC50": 5.17
  },
  {
    "COMPOUND": "C[C@@H](CN1CC(O)C1)N(C)C(=O)c1ccc(Cl)c(F)c1 [Example 40.3]",
    "pIC50": 5.03
  },
  {
    "COMPOUND": "CN(C(=O)c1ccc(F)c(C(F)(F)F)c1)[C@H](CN1CC(O)C1)C1CC1 [Example 7.5]",
    "pIC50": 5.74
  },
  {
    "COMPOUND": "CC(C)[C@@H](CN1CCCC1)N(C)C(=O)c1cc(F)cc(F)c1 [Example 16.12]",
    "pIC50": 4.82
  },
  {
    "COMPOUND": "CCC[C@@H](CN1CC[C@H](O)C1)N(C)C(=O)c1ccc(C#N)cc1 [Example 46.1]",
    "pIC50": 5.10
  },
  {
    "COMPOUND": "CC(C)[C@@H](CN1CC(F)C1)N(C)C(=O)c1ccc(F)c(Cl)c1 [Example 1.8]",
    "pIC50": 4.96
  }
]

----------
target: human cardiac ion channel proteins hKir3.1/Kir3.4 (Homo sapiens, UniProt P48544+P48549); construct: expressed in transfected cells; test: Atomic Absorption Screening (AAS) Rb efflux assay of hKir3.1/Kir3.4 block, carbachol/high K+ stimulated, 10-pt or 7-pt CR; type: cell-based; conditions: 7-pt CR (0.037 to 27 μmol/L), AAS Rb efflux, CHO-K1 cells expressing hKir3.1/Kir3.4; mean of >3 replicates; read-out: IKACh IC50 7-pt CR, AAS
Rule: IC50 below 4 µM gives Fulfilled. Equal to or above 4 µM gives Not fulfilled.

[
  {
    "SMILES_REPRESENTATION": "Cc1ccc(C(=O)N(C)[C@H](CN2CC[C@H](O)C2)C(C)C)cc1",
    "DISCRETE_LABEL": "Not fulfilled"
  },
  {
    "SMILES_REPRESENTATION": "CC(C)[C@H](CN1CCCC1)N(C)C(=O)c1ccc(Br)c(F)c1",
    "DISCRETE_LABEL": "Not fulfilled"
  },
  {
    "SMILES_REPRESENTATION": "CC(C)[C@@H](CN1CCCCC1)N(C)C(=O)c1ccc(F)c(Cl)c1",
    "DISCRETE_LABEL": "Not fulfilled"
  },
  {
    "SMILES_REPRESENTATION": "Cc1cc(C(=O)N(C)[C@H](CN2CC[C@H](O)C2)C(C)C)ccc1F",
    "DISCRETE_LABEL": "Fulfilled"
  },
  {
    "SMILES_REPRESENTATION": "CC(C)[C@@H](CN1CC[C@H](O)C1)N(C)C(=O)c1ccc(Cl)cc1",
    "DISCRETE_LABEL": "Fulfilled"
  },
  {
    "SMILES_REPRESENTATION": "Cc1cccc(C(=O)N(C)[C@H](CN2CCCCC2)C(C)C)c1",
    "DISCRETE_LABEL": "Not fulfilled"
  },
  {
    "SMILES_REPRESENTATION": "CC(C)[C@@H](CN1CCCC1)N(C)C(=O)c1cc(F)c(F)c(F)c1",
    "DISCRETE_LABEL": "Not fulfilled"
  },
  {
    "SMILES_REPRESENTATION": "CC(C)[C@@H](CN1CCCC1)N(C)C(=O)c1ccc(F)cc1Cl",
    "DISCRETE_LABEL": "Fulfilled"
  },
  {
    "SMILES_REPRESENTATION": "CC(C)[C@@H](CN1CC[C@H](O)C1)N(C)C(=O)c1ccc(F)cc1C(F)(F)F",
    "DISCRETE_LABEL": "Not fulfilled"
  },
  {
    "SMILES_REPRESENTATION": "CC(C)[C@@H](CN1CCCCC1)N(C)C(=O)c1ccc(Cl)c(Cl)c1",
    "DISCRETE_LABEL": "Fulfilled"
  },
  {
    "SMILES_REPRESENTATION": "CC(C)[C@@H](CN1CCCCC1)N(C)C(=O)c1cccc(Cl)c1",
    "DISCRETE_LABEL": "Not fulfilled"
  },
  {
    "SMILES_REPRESENTATION": "CC(C)[C@@H](CN1CCCC1)N(C)C(=O)c1ccc(Cl)cc1F",
    "DISCRETE_LABEL": "Fulfilled"
  },
  {
    "SMILES_REPRESENTATION": "CC(C)[C@@H](CN1CCCCC1)N(C)C(=O)c1ccc(Br)c(F)c1",
    "DISCRETE_LABEL": "Not fulfilled"
  },
  {
    "SMILES_REPRESENTATION": "CC(C)[C@H](CN1CCCC1)N(C)C(=O)c1ccc(Br)cc1",
    "DISCRETE_LABEL": "Not fulfilled"
  },
  {
    "SMILES_REPRESENTATION": "CC(C)c1ccc(C(=O)N(C)[C@H](CN2CCCC2)C(C)C)cc1",
    "DISCRETE_LABEL": "Not fulfilled"
  }
]
